- System: sharks (species pooled)
- assay_info: Tonic immobility, total of delivery methods not including Micropipette assays
- Type: in vivo
- test_settings: species and delivery methods pooled
Reported Total (Not including Micropipette assays / Effective Delivery Methods) Y, trials of trials by item:
experimental_endpoint: Total (Not including Micropipette assays / Effective Delivery Methods) Y, trials of trials

>>> value_observed("CCCCCC=O")
"1/1"
>>> value_observed("CC(C)CC=O")
"29/36"
>>> value_observed("CCC(C)C=O (stereo not drawn)")
"5/5"
>>> value_observed("CCCCC=O")
"6/6"
>>> value_observed("CC(C)C=O")
"4/4"
>>> value_observed("CCC=O")
"4/4"
>>> value_observed("O=C/C=C/c1ccccc1 [Cinnimaldehyde, trans-cinnimaldehyde]")
"2/2"
>>> value_observed("CC(C)c1ccc(C=O)cc1")
"1/1"
>>> value_observed("CC(C)(C)C=O")
"6/7"
>>> value_observed("CCCC=O")
"4/4"
>>> value_observed("O=Cc1ccc2c(c1)OCO2")
"1/1"
>>> value_observed("CC/C=C/C=O [Trans-pentenal, trans-pentenal]")
"5/5"
